Entries annotated with measured fold induction at 1 µM
- Test system: T-cell
- assay overview: IL-2 secretion from T-cells stimulated with anti-CD3 antibody alone (Biological Example 2)
- Format: cell-based, human
- test conditions: Homo sapiens, T-cell; 1 μM Cbl-b inhibitor; fold change over baseline (anti-CD3/anti-CD28 stimulated T-cells without inhibitor); read-out: IL-2 secretion Anti-CD3 stimulation

Known results for compounds:
compound="Cn1cnnc1OC1(c2cccc(N3Cc4c(cc(CN5CCC(F)CC5)cc4C(F)(F)F)C3=O)c2)COC1 [Example 700]" result="< 0.05"
compound="C[C@@H](c1cc2c(c(C(F)(F)F)c1)CN(c1cccc(C3(Cc4nncn4C)COC3)c1)C2=O)N1CC(F)C1 [Example 668b]" result="0.151 to 0.2"

Now look at this entry.
Query fold induction at 1 µM on T-cell for CCOc1cc(NC(=O)c2cc(C)nc(C3CC3)n2)cc(C2(Cc3nncn3C)COC2)c1 [Example 690] 0.051 to 0.1

---

- study system: Cbl-b (Homo sapiens, UniProt Q13191)
- Sequence (Q13191 36-427): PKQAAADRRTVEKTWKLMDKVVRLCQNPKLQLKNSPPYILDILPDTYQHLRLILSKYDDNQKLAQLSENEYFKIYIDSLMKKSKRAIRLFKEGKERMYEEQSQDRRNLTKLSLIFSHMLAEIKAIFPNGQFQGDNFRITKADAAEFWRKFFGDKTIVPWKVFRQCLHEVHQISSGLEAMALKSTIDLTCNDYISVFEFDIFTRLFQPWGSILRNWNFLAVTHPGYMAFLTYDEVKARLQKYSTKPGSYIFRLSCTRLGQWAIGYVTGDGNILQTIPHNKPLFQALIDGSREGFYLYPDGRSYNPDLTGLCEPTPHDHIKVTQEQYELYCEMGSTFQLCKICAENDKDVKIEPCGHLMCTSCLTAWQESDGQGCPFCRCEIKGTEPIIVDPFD
- assay overview: Cbl-b inhibition assay (Cbl-b activity assay, FRET, Biological Example 1; 100 mM NaCl, 60 nM Src kinase)
- Assay type: biochemical
- test conditions: upper bound stated in text lists; read-out: IC50 values in the Cbl-b inhibition assay of Biological Example 1
pIC50: −log10 of the molar value.
Some compounds, each annotated with its measured pIC50.

// below: answered compounds
compound="Cn1cnnc1CC1(c2cccc(N3Cc4c(cc(N5CCC(C(F)F)C5)cc4C(F)(F)F)C3=O)c2)COC1 (stereo not drawn)" result="≥ 7.00"
compound=C[C@H](Cc1nncn1C)c1cccc(N2Cc3c(cc(C4CC4)nc3C3CC3)C2=O)c1 result="≥ 6.52"
compound=C[C@H](Sc1nncn1C1CC1)c1cccc(NC(=O)c2cc3ccccc3cn2)c1 result="≥ 6.00"

Quick check: pIC50 of C[C@H](Sc1nncn1C)c1cccc(N2Cc3c(cccc3C(F)(F)F)C2=O)c1 [Compound 166a] ? ≥ 6.30

And what about the compound `Cc1cc(C(=O)Nc2cccc([C@@H](C)Cc3nncn3C)c2)nc(C2CC2)n1` ? ≥ 6.52

Please give the result for C[C@H]1CN(Cc2cc3c(c(C(F)(F)F)c2)CN(c2cccc(C4(Cc5nncn5C)COC4)c2)C3=O)CCO1 [Example 663a] too. ≥ 7.00

Please do the same for `C[C@H](Cc1nncn1C)c1ccnc(NC(=O)c2ccc3ccccc3n2)c1` as well. ≥ 6.00

Quick one: `Cn1cnnc1CC1(c2cccc(NC(=O)c3cc(C4CC4)nc(C(F)(F)F)n3)c2)COC1` ≥ 7.00

Here is the next compound: `Cn1cnnc1CC1(c2cccc(N3Cc4c(cc(CN5CC[C@H](F)C5)cc4C(F)(F)F)C3=O)c2)COC1` ≥ 7.00

What do you have for Cn1cnnc1CC1(c2cccc(N3Cc4c(cc(CN5CC6CC6(C)C5)cc4C(F)(F)F)C3=O)c2)COC1 (stereo not drawn) ? ≥ 7.00

---

- study system: Cbl-b (Homo sapiens, UniProt Q13191)
- assay overview: Cbl-b inhibition assay (Cbl-b activity assay, FRET, Biological Example 1; 100 mM NaCl, 60 nM Src kinase)
- Format: biochemical
- test conditions: upper bound stated in text lists; read-out: IC50 values in the Cbl-b inhibition assay of Biological Example 1
Attribute: IC50

Take a look at these entries with their results.
molecule="Cn1cnnc1[C@H](F)C(C)(F)c1cccc(N2Cc3c(cccc3C(F)(F)F)C2=O)c1 (stereo in doubt)" readout_kind=IC50 result="≤ 100 nM"
molecule=CNc1ccnc(C(=O)Nc2cccc([C@H](C)Sc3nncn3C)c2)c1 readout_kind=IC50 result="≤ 10000 nM"
molecule=Cn1cnnc1CC1(c2cccc(N3Cc4c(cc(CN5C[C@@H](F)[C@@H](F)C5)cc4C(F)(F)F)C3=O)c2)COC1 readout_kind=IC50 result="≤ 100 nM"
molecule=C[C@H](Cc1nncn1C)c1cccc(N2Cc3c(ccnc3C3CC3)C2=O)c1 readout_kind=IC50 result="≤ 500 nM"
molecule=Cn1cnnc1CC1(c2cccc(NC(=O)c3cc(CN4C[C@@H]5[C@H](C4)C5(F)F)cc(C4CC4)n3)c2)COC1 readout_kind=IC50 result="≤ 100 nM"
molecule=Cc1conc1CC1(c2cccc(NC(=O)c3cc(CN4CCC5(CC5)C4)nc(C4CC4)n3)c2)COC1 readout_kind=IC50 result="≤ 100 nM"

Enter reported IC50 observed with Cbl-b (Homo sapiens, UniProt Q13191) for `C[C@H](Sc1nncn1C)c1cccc(NC(=O)c2cncc(C(F)(F)F)n2)c1` ≤ 500 nM

Same again, this time with `C[C@H](Sc1nncn1C)c1ccnc(NC(=O)c2cc(Cl)cc(C(F)(F)F)n2)c1` ≤ 1000 nM

Same question, `Cn1cnnc1CC1(c2cccc(N3Cc4c(cc(CN5CCC6(CC6)C5)cc4C(F)(F)F)C3=O)c2)CCC1` this time ≤ 100 nM
